Test system: platelet aggregation (platelet-rich plasma)
measurement_protocol: Antithrombotic activity: inhibition of collagen-induced platelet aggregation in platelet-rich plasma (Born and Cross)
Assay type: cell-based, human (healthy volunteers)
run_parameters: 50% change in optical density, human platelet-rich plasma, 10 min preincubation
property_name: EC50 (µM)

a: N=C(N)c1ccc(-c2nc3cc(C(=O)NCCC(=O)O)ccc3n2CCCN2CCS(=O)(=O)CC2)cc1 [1(75)]
b: COc1ccc(CCn2c(-c3ccc(C(=N)N)cc3)nc3cc(C(=O)NCCC(=O)OC(C)C)ccc32)cc1OC [Example 13]
Hi there, can you help? I need to know whether a or b has lower measured EC50. Choose, then provide that item's label.
a
(a: 1.1 µM, b: 5.7 µM)

1: COC(=O)CCNC(=O)c1ccc2[nH]c(-c3ccc(C(=N)N)cc3)nc2c1 [15(1)]
2: COC(=O)CCNC(=O)c1ccc2c(c1)nc(-c1ccc(C(=N)N)cc1)n2Cc1ccccc1 [3(48)]
// which entry has the larger EC50 value, 1 or 2 ? Choose, then provide that item's label.
2
(2: 6.4 µM, 1: 4.1 µM)

====

Test system: platelet aggregation (platelet-rich plasma)
measurement_protocol: Antithrombotic activity: inhibition of collagen-induced platelet aggregation in platelet-rich plasma (Born and Cross)
Format: cell-based, human (healthy volunteers)
run_parameters: 50% change in optical density, human platelet-rich plasma, 10 min preincubation
Where a name gives a salt, the structure may show the parent alone.
property_name: EC50 (µM)

// worked examples, EC50 included
Suppose we examine the compound COC(=O)CCNC(=O)c1ccc2c(c1)nc(-c1ccc(C(=N)N)cc1)n2CCC(c1ccccc1)c1ccccc1 ; what EC50 value has been reported?
9.9

Suppose we examine the compound CN(CC(=O)O)c1cc2c(cc1C(=O)NCCC(=O)O)nc(-c1ccc(C(=N)N)cc1)n2C ; what EC50 value has been reported?
0.75

Suppose we examine the compound COC(=O)CCNC(=O)c1ccc2c(c1)nc(-c1ccc(C(=N)N)cc1)n2CCCN1CCSCC1 ; what EC50 value has been reported?
3.8

A: CCCCCCCCCCCCCCn1c(-c2ccc(C(=N)N)cc2)nc2cc(C(=O)NCCC(=O)OC)ccc21
B: N=C(N)c1ccc(-c2nc3cc(C(=O)NCCC(=O)O)ccc3[nH]2)cc1 [1(2), hydrochloride]
C: Cn1c(-c2ccc(C(=N)N)cc2)nc2cc(C(=O)NCCCC(=O)O)ccc21
D: N=C(N)c1ccc(-c2nc3cc(C(=O)NCCC(=O)O)ccc3n2Cc2cccnc2)cc1
Your job: order these 4 records by EC50, ascending. Please list the labels according to the requested order.
D, B, C, A

1: N=C(N)c1ccc(-c2nc3cc(C(=O)NCCC(=O)O)ccc3n2CCCCc2ccccc2)cc1
2: Cn1c(-c2ccc(C(=N)N)cc2)[n+]([O-])c2cc(C(=O)NCCC(=O)O)ccc21
3: COC(=O)CCNC(=O)c1cc2nc(-c3ccc(C(=N)N)cc3)n(C)c2cc1N(C)CC(=O)OC
4: COC(=O)CCNC(=O)c1ccc2c(c1)nc(-c1ccc(C(=N)N)cc1)n2CCCC(=O)O
// sort entries: EC50, high to low Please list the labels according to the requested order.
4, 3, 1, 2
(4: 13 µM, 3: 2.8 µM, 1: 0.29 µM, 2: 0.08 µM)

a: N=C(N)c1ccc(-c2nc3cc(C(=O)NCCC(=O)O)ccc3n2CCCN2CC[S+]([O-])CC2)cc1
b: COC(=O)COc1ccc2[nH]c(COc3ccc(C(=N)N)cc3)nc2c1
// which entry has the larger EC50 value, a or b ? Choose, then provide that item's label.
b
(b: 1.2 µM, a: 0.31 µM)

====

Tested on: platelet aggregation (platelet-rich plasma)
measurement_protocol: Antithrombotic activity: inhibition of collagen-induced platelet aggregation in platelet-rich plasma (Born and Cross)
Format: cell-based, human (healthy volunteers)
run_parameters: 50% change in optical density, human platelet-rich plasma, 10 min preincubation
pEC50: −log10 of the molar value.
property_name: pEC50

// worked examples, pEC50 included
Suppose we examine the compound COC(=O)CCNC(=O)c1ccc2c(c1)nc(-c1ccc(C(=N)N)cc1)n2Cc1cccnc1 ; what pEC50 value has been reported?
5.02

Suppose we examine the compound N=C(N)c1ccc(-c2nc3cc(C(=O)NCCC(=O)O)ccc3n2CCN2CCN(Cc3ccccc3)CC2)cc1 ; what pEC50 value has been reported?
7.10

Suppose we examine the compound COC(=O)CCNC(=O)c1ccc2c(c1)nc(-c1ccc(C(=N)N)cc1)n2CCc1cc(Br)c(N)c(Br)c1 ; what pEC50 value has been reported?
6.60

Suppose we examine the compound COC(=O)CCCn1c(-c2ccc(C(=N)N)cc2)nc2cc(C(=O)NCCC(=O)OC)ccc21 ; what pEC50 value has been reported?
5.70

Suppose we examine the compound NCCCn1c(-c2ccc(CN)cc2)nc2cc(C(=O)NCCC(=O)O)ccc21 [Example 17, acetate] ; what pEC50 value has been reported?
5.42

1: COC(=O)CCNC(=O)c1cnc2c(c1)nc(-c1ccc(C(=N)N)cc1)n2C
2: Cn1c(-c2ccc(C(=N)N)cc2)nc2cc(C(=O)NCCC(=O)O)cnc21
// which entry has the larger pEC50 value, 1 or 2 ? Choose, then provide that item's label.
2
(2: 7.40, 1: 6.48)

====

assayed_target: Human Thrombocytes
measurement_protocol: Fibrinogen binding to human thrombocytes (fibrinogen binding test)
run_parameters: 125I fibrinogen; 50% inhibition of fibrinogen binding; gel-filtered human platelets, ADP, 20 min ambient temperature; read-out: Fibrinogen binding test IC50
property_name: IC50 (µM)

// worked examples, IC50 included
Suppose we examine the molecule Cn1c(-c2ccc(C(=N)N)cc2)nc2cc(C(=O)NCCCC(=O)O)ccc21 [Example 1] ; what IC50 value has been reported?
33

Suppose we examine the molecule Cn1c(-c2ccc(CN)cc2)nc2cc(C(=O)NCCC(=O)O)ccc21 [17(1)] ; what IC50 value has been reported?
0.7

Suppose we examine the molecule Cn1c(-c2ccc(C(=N)N)cc2)nc2cc(C(=O)NCCC(=O)O)ccc21 [Example 1(3)] ; what IC50 value has been reported?
0.037

1: COC(=O)CCCCn1c(=O)c2nc(-c3ccc(C(=N)N)cc3)n(C)c2n(C)c1=O [3(141)]
2: COC(=O)CCNC(=O)c1ccc2c(c1)nc(-c1ccc(C(=N)N)cc1)n2CCc1cc(Br)c(N)c(Br)c1 [3(125)]
// which entry has the larger IC50 value, 1 or 2 ? Choose, then provide that item's label.
2
(2: 2 µM, 1: 0.14 µM)

1: Cn1c(-c2ccc(C(=N)N)cc2)nc2cc(C(=O)N3CCCC(C(=O)O)C3)ccc21 (stereo not drawn) [17(10)]
2: Cn1c(-c2ccc(C(=N)N)cc2)[n+]([O-])c2cc(C(=O)NCCC(=O)O)ccc21 [1(79)]
3: COC(=O)CCNC(=O)c1ccc2c(c1)nc(-c1ccc(C(=N)N)cc1)n2CCC(c1ccccc1)c1ccccc1 [3(126)]
Your job: order these 3 records by IC50, ascending. Please list the labels according to the requested order.
2, 3, 1
(2: 0.041 µM, 3: 2.2 µM, 1: 26 µM)

A: N=C(N)c1ccc(-c2nc3cc(C(=O)NCCC(=O)O)ccc3n2CCN2CCNCC2)cc1 [Example 15, acetate]
B: N=C(N)c1ccc(-c2nc3cc(NC(=O)CCC(=O)O)ccc3[nH]2)cc1 [1(1)]
Hi there, can you help? I need to know whether A or B has lower measured IC50. Choose, then provide that item's label.
A
(A: 0.028 µM, B: 0.6 µM)

1: N=C(N)c1ccc(OCc2nc3cc(OCC(=O)O)ccc3[nH]2)cc1 [1(135)]
2: N=C(N)c1ccc(-c2nc3cc(C(=O)NCCC(=O)O)ccc3n2CCN2CCN(Cc3ccccc3)CC2)cc1 [1(136)]
// which entry has the larger IC50 value, 1 or 2 ? Choose, then provide that item's label.
1
(1: 0.8 µM, 2: 0.03 µM)

====

assayed_target: Human Thrombocytes
measurement_protocol: Fibrinogen binding to human thrombocytes (fibrinogen binding test)
run_parameters: *: 125I fibrinogen replaced by 3H-(3S,5S)-5-[(amidino-biphenylyl)-oxymethyl]-carboxymethyl-pyrrolidinone ligand; read-out: Fibrinogen binding test IC50 (values marked *)
property_name: IC50 (µM)

// worked examples, IC50 included
Suppose we examine the compound CNc1cc2c(cc1C(=O)NCCC(=O)O)nc(-c1ccc(C(=N)N)cc1)n2C ; what IC50 value has been reported?
0.41

Suppose we examine the compound COc1ccc(CCn2c(-c3ccc(C(=N)N)cc3)nc3cc(C(=O)NCCC(=O)OC(C)C)ccc32)cc1OC ; what IC50 value has been reported?
1.7

Suppose we examine the compound N=C(N)c1ccc(-c2nc3cc(C(=O)NCCC(=O)O)ccc3n2CCCN2CC[S+]([O-])CC2)cc1 ; what IC50 value has been reported?
0.12

Suppose we examine the compound N=C(N)c1ccc(-c2nc3cc(C(=O)NCCC(=O)O)ccc3n2CCCN2CCS(=O)(=O)CC2)cc1 ; what IC50 value has been reported?
0.23

Suppose we examine the compound N=C(N)c1ccc(-c2nc3cc(C(=O)NCCC(=O)O)ccc3n2Cc2cccnc2)cc1 ; what IC50 value has been reported?
0.17

P: CCCCCCCCCCCCCCn1c(-c2ccc(C(=N)N)cc2)nc2cc(C(=O)NCCC(=O)O)ccc21
Q: COC(=O)CCNC(=O)c1cnc2c(c1)nc(-c1ccc(C(=N)N)cc1)n2C
Hi there, can you help? I need to know whether P or Q has lower measured IC50. Choose, then provide that item's label.
Q
